B1: tRNA (parent)
chain: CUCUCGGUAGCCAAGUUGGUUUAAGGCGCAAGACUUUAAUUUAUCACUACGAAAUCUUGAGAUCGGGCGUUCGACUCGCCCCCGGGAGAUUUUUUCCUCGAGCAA

Variants of: B1
TEST PROTOCOL: nonsense suppression (GFP-seq) (ratio to wild type); higher = more function; SUP4oc tRNA, yeast GFP reporter sort-seq
Variants at the floor of the assay were thinned out.
PROPERTY: nonsense suppression

1) U4G U22A : 0.216
2) U17G U55C : 0.0769
3) C3U G6U : 0.0343
4) U20G G67A : 0.0529
5) A62U G84C : 0.0347
6) A9G C75A : 0.762
7) A54C G61A : 0.334
8) G10A U63G : 0.0314
9) G15A A31G : 0.0274
10) A60U : 0.984
11) C5U A60C : 0.0867
